The measurements presented in this section are drawn from patent US20110286916A1.

SYSTEM_TESTED: T1, human full-length Notch3 with C-terminal FLAG tag, stably expressed on 293 FlpIn (TREx) cells (human, UniProt Q9UM47 40-2321)
T1 construct: whole, on cells; made by the same strategy as the Notch1 line; also called 293-N3; hN3
TEST_DESCRIPTION: FACS, phage scFv
REPORTED_METRIC: binding result

BINDER	REPORTED_METRIC	MEAS_VALUE
N1wc225 (scFv, V domains shown) VH: QVQLQQSGAEVKKPGASVKVSCKASGYNFTGYYMHWVRQAPGQGLEWMGWINPNSGGTNYAQKFQGRVTMTRDTSISTAYMELSRLRSDDTAVYYCATDSFDYWGRGTMVTVSS VL: QSVVTQPPSVSGAPGQRVTISCTGSSSNIGAGYDVHWYQQLPGTAPKLLIYGNSNRPSGVPDRFSGSKSGTSASLAITGLQAEDEADYYCQSYDSSLSGSVFGGGTKLTVL	binding result	binds
hN1S3-136 (scFv, V domains shown, phage scFv) VH: QVQLQESGAEVKKPGASVKVSCKASGYNFTGYYMHWVRQAPGQGLEWMGWINPNSGGTNYAQKFQGRVTMTRDTSISTAYMELSRLRSDDTAVYYCATDSFDYWGRGTTVTVSS VL: QAVLTQPSSESGTPGQRVTISCSGTTSNIGDNTVTWYQQLPGTAPKLLIYSNTQRPSGVPARFSGSKSGTSASLAISGLQSGDEADYYCAAWDDSRNGYVFGTGTKLTVL	binding result	binds
N1wc170 (scFv, V domains shown, phage scFv) VH: QVQLQQSGPEVKKPGASVKISCKTSGYTFSSFGISWVRQAPGQGPEWMGWVSPYSGDTDYAQKFRGRVTMTIDSSTDTAYVEMRSLRSDDTAIYYCANSPISDGSSSSYDNWGKGTLVTVSS VL: SYELTQPPSVSVAPGQTARITCGGENIGTKSVHWYQQKSGQAPVLVIYEDKKRPSGIPDRFSGSSSGTMATLTITGAQVDDEADYYCYSADNTGDQRMFGGGTKLTVL	binding result	binds
